# Tested on: Kocuria
# Assay name: Growth inhibition of Kocuria isolate Eys10 after 24 hrs
# Format: functional, organism-based
# Condition label: isolate Eys10, 24 h
Experimental readout: pIC50
Answers are plain numbers, as −log10 of the molar value.

[Q] Find the recorded pIC50 belonging to Nc1ncc(/C=C/CNC(=O)c2cc(Br)c(Br)[nH]2)[nH]1 and report it.
[A] 4.29

---

# Tested on: Pseudomonas sp. NB86
# Assay name: Antibiofilm activity against Pseudomonas sp. NB86 assessed as inhibition of biofilm formation incubated for 24 hrs by crystal violet staining based assay
# Type: functional, organism-based
# Condition label: Pseudomonas sp. NB86, 24 h
Experimental readout: pIC50
Numbers only, as −log10 of the molar value.

[Q] Item Nc1ncc(/C=C/CNC(=O)c2cc(Br)c(Br)[nH]2)[nH]1 [OROIDIN] with Pseudomonas sp. NB86 - pIC50?
[A] 4.24

---

# Tested on: Pseudomonas sp.
# Assay name: Growth inhibition of Pseudomonas sp. isolate ISP2_Ab after 24 hrs
# Assay type: functional, organism-based
Experimental readout: IC50
The number alone won't do; follow it with the unit.

[Q] Given Nc1ncc(/C=C/CNC(=O)c2cc(Br)c(Br)[nH]2)[nH]1 , state its recorded IC50.
[A] 310 µM

---

# System: Pseudomonas sp. NB86
# Assay name: Growth inhibition of Pseudomonas sp. NB86 after 24 hrs
# Format: functional, organism-based
# Condition label: Pseudomonas sp. NB86, 24 h
Experimental readout: pIC50
Answers are plain numbers, as −log10 of the molar value.

[Q] Sample Nc1ncc(/C=C/CNC(=O)c2cc(Br)c(Br)[nH]2)[nH]1 [OROIDIN] — what was its pIC50?
[A] 3.48

---

# Tested on: Pseudomonas sp.
# Assay name: Growth inhibition of Pseudomonas sp. isolate ISP2_16 after 24 hrs
# Type: functional, organism-based
# Condition label: isolate ISP2_16, 24 h
Experimental readout: IC50 (µM)
One number for each entry, in µM.

[Q] Give Pseudomonas sp. IC50 for Nc1ncc(/C=C/CNC(=O)c2cc(Br)c(Br)[nH]2)[nH]1
[A] 170
